test: NCI Yeast Anticancer Drug Screen. Data for the cln2 rad14 strain (AID 165); conditions: S. cerevisiae cln2 rad14 strain, at 5.0 µM (retest, dose inferred, filed as 0.5)
Compounds without any hit were thinned out: in the full panel of roughly 79,000, 15% have a hit. The source made the active and inactive calls. Cut-off read from the data, not from the text of the source: active = growth inhibition above about 70%; inactive = the rest.
Form entry, call: pick from Yes = active, No = inactive

Example cases with answers are listed next.
>>> assigned_class("O/N=C1\\c2ccccc2-c2ccc(Cl)cc21")
"No"
>>> assigned_class("COc1cc2c(cc1OC)NCC1COc3c(ccc(OC)c3OC)C1=N2 (stereo not given)")
"No"
>>> assigned_class("O=C(C(=Cn1c(=S)[nH]c2ccc([N+](=O)[O-])cc21)C(=O)c1ccccc1)c1ccccc1")
"No"

Query string: I would be grateful if you could indicate the recorded call for CCCCOC(=O)c1cnc[nH]c1=O .
Result string: No

Query string: Check CCc1cccc(C)c1N1C(=O)C(=O)C(c2nc3ccccc3o2)/C(=N\NS(=O)(=O)c2ccc(C)cc2)C1=O (stereo not given) too.
Result string: No

Query string: Now give it for CC1(C)OC2C(COC(c3ccccc3)(c3ccccc3)c3ccccc3)OC(n3ccc(=O)[nH]c3=O)C2O1 (stereo not given) too.
Result string: No

Query string: Also, Cc1[nH]c(=O)[nH]c(=S)c1C(=O)NC1C2CCCCC2NC2CCCCC21 (stereo not given) please.
Result string: Yes

Query string: Now the compound C[N+](C)(C)CCN(Cc1cccs1)c1ccccn1
Result string: No

Query string: # repeat for FC(F)(F)c1ccc(NC(=S)SCc2ccc3c(c2)OCO3)cc1
Result string: No

Query string: What would you report for COc1ccc2c(C)c(N=C=S)c(=O)oc2c1 ?
Result string: No
